- TARGET SYSTEM: T1, human MSLN-hFc protein (Acro, Cat. No. MSN-H5253) (human, UniProt Q13421 296-580)
- T1 construct: the method names the coated protein as human MSLN-hFc (Acro); also called human MSLN full-length protein
- T1 sequence (Q13421 other isoform, or with tags, fused parts or gaps limits assumed): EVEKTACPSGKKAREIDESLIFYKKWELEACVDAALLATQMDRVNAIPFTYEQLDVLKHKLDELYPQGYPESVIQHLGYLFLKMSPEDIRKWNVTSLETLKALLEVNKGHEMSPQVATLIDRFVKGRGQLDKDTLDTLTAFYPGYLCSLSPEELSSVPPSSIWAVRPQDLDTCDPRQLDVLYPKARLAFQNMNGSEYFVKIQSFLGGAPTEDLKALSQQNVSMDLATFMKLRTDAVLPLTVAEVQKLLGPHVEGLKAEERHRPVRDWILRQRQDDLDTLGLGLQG
- ASSAY NOTES: ELISA on coated antigen, antibody 0.1 nM
VALUE KIND: OD450 (OD450)
// units = OD450; emit number, no label

Completed entries (count: 2):
1) F7.33.24-H6 (scFv, not shown: small tags and cut ends, also called S009-F7.33.24 humanized antibody VH1a + VL3) scFv: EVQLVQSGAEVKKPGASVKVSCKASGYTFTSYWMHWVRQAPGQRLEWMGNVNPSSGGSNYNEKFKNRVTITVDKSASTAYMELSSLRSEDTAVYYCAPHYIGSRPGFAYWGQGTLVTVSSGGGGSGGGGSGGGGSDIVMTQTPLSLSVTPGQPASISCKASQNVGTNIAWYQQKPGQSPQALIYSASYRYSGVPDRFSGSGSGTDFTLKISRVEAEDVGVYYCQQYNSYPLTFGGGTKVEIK; 0.08
2) F7.33.24-H9 (scFv, not shown: small tags and cut ends, also called S009-F7.33.24 humanized antibody VH2 + VL3) scFv: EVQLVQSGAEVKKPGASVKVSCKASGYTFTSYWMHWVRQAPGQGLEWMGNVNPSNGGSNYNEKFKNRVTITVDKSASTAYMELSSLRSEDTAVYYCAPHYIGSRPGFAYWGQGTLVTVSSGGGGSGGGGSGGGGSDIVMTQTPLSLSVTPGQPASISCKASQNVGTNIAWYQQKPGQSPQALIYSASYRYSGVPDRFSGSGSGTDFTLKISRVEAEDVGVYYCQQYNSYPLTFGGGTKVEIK; 0.1

Pending binder:
## Task Given the binder F7.33.24-H1 (scFv, not shown: small tags and cut ends, also called S009-F7.33.24 humanized antibody VH1 + VL1) scFv: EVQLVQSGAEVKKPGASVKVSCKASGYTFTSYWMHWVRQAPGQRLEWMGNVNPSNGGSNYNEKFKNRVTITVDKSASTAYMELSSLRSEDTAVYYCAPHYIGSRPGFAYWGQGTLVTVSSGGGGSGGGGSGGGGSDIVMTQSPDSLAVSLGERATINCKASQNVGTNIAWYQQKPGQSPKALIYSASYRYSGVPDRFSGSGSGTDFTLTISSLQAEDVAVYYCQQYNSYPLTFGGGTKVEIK , write its reported OD450.
## Result 0.1
